molecular target: Axl (UniProt P30530); test: ELISA, 1:3 dilution
Sequence (P30530 26-451 limits assumed): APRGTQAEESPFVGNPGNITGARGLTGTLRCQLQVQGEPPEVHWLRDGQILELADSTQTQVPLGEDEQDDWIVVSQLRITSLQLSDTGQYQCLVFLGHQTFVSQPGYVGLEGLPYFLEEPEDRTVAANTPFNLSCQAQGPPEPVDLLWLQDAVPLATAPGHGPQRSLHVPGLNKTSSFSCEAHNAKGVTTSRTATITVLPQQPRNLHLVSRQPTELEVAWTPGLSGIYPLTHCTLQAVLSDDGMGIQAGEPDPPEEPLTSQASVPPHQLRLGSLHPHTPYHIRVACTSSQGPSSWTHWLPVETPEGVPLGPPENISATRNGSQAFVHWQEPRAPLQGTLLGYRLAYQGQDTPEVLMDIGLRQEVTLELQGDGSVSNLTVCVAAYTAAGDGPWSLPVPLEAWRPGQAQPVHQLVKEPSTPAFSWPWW
readout-kind: Affinity ELISA CPE mutant ratio (1:3, pH 6.0/7.4)
Lab note: record the figure alone, no unit after it.

Completed entries (count: 3):
• LC-P095A (antibody, V domains shown) VH: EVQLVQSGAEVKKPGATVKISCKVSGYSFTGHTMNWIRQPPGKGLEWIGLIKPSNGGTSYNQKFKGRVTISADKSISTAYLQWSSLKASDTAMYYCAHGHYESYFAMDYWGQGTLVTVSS VL: DIQMTQSPSSLSASVGDRVTITCKASQDVSSAVAWYQQKPGQAPRLLIYWASTRHTGVPSRFSGSGSGTEFTLTISSLQPDDFATYYCQEHFSTALTFGQGTKVEIK = 2.52
• LC-F092G (antibody, V domains shown) VH: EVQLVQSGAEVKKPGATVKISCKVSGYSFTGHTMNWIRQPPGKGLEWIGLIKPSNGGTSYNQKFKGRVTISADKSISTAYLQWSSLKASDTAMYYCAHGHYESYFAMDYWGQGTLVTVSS VL: DIQMTQSPSSLSASVGDRVTITCKASQDVSSAVAWYQQKPGQAPRLLIYWASTRHTGVPSRFSGSGSGTEFTLTISSLQPDDFATYYCQEHGSTPLTFGQGTKVEIK = 3.69
• HC-Y104P (antibody, V domains shown) VH: EVQLVQSGAEVKKPGATVKISCKVSGYSFTGHTMNWIRQPPGKGLEWIGLIKPSNGGTSYNQKFKGRVTISADKSISTAYLQWSSLKASDTAMYYCAHGHYESPFAMDYWGQGTLVTVSS VL: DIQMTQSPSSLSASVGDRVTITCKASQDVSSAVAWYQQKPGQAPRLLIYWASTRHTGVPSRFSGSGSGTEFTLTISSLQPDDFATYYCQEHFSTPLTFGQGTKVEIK = 2.54

Q: Return reported Affinity ELISA CPE mutant ratio (1:3, pH 6.0/7.4). Input binder: HC-W110T (antibody, V domains shown) VH: EVQLVQSGAEVKKPGATVKISCKVSGYSFTGHTMNWIRQPPGKGLEWIGLIKPSNGGTSYNQKFKGRVTISADKSISTAYLQWSSLKASDTAMYYCAHGHYESYFAMDYTGQGTLVTVSS VL: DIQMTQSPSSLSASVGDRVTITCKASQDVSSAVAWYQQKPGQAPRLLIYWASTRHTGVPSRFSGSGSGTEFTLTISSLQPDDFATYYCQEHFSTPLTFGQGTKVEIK
A: 7.47

Q: Give recorded Affinity ELISA CPE mutant ratio (1:3, pH 6.0/7.4). HC-W110A (antibody, V domains shown) VH: EVQLVQSGAEVKKPGATVKISCKVSGYSFTGHTMNWIRQPPGKGLEWIGLIKPSNGGTSYNQKFKGRVTISADKSISTAYLQWSSLKASDTAMYYCAHGHYESYFAMDYAGQGTLVTVSS VL: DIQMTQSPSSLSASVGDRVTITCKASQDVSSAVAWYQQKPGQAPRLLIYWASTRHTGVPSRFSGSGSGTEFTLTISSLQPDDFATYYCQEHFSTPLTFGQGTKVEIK
A: 7.91
